Target: T1, MHC class I molecule B*0702 (biotin (bound to streptavidin-coated plate))
T1 construct: also called B7; HLA-B7
Assay: iTopia iScore
reported.endpoint: iScore
// print number alone

VVAALLAGR [5T4 9-mer peptide 100 VVAALLAGR] | 0
LELASNHFL [5T4 9-mer peptide 108 LELASNHFL] | 0
ASVSAPSPL [5T4 9-mer peptide 84 ASVSAPSPL] | 0.017

input: What does the data say about its iScore? Entry: AALNLSGSR [5T4 9-mer peptide 61 AALNLSGSR]
output: 0

input: What does the data say about its iScore? Entry: SSFSSSAPF [5T4 9-mer peptide 20 SSFSSSAPF]
output: 0

input: What does the data say about its iScore? Entry: HNPLADLSP [5T4 9-mer peptide 76 HNPLADLSP]
output: 0

input: What does the data say about its iScore? Entry: VLPAGAFAR [5T4 9-mer peptide 53 VLPAGAFAR]
output: 0

input: What does the data say about its iScore? Entry: PDQCPALCE [5T4 9-mer peptide 30 PDQCPALCE]
output: 0

input: What does the data say about its iScore? Entry: FEGMVVAAL [5T4 9-mer peptide 98 FEGMVVAAL]
output: 0

input: What does the data say about its iScore? Entry: CSRGPAAGD [5T4 9-mer peptide 3 CSRGPAAGD]
output: 0

input: What does the data say about its iScore? Entry: LLGWVSSSS [5T4 9-mer peptide 13 LLGWVSSSS]
output: 0

input: What does the data say about its iScore? Entry: QNRSFEGMV [5T4 9-mer peptide 96 QNRSFEGMV]
output: 0

input: What does the data say about its iScore? Entry: RSFEGMVVA [5T4 9-mer peptide 97 RSFEGMVVA]
output: 0

input: What does the data say about its iScore? Entry: GGCSRGPAA [5T4 9-mer peptide 2 GGCSRGPAA]
output: 0.012

input: What does the data say about its iScore? Entry: LSGSRLDEV [5T4 9-mer peptide 63 LSGSRLDEV]
output: 0.107

input: What does the data say about its iScore? Entry: SNHFLYLPR [5T4 9-mer peptide 110 SNHFLYLPR]
output: 0

Just for reference, patent US20090280138A1 is where these values come from.
